- target: T1, Extracellular domain (ECD) of the canine IL-4 receptor alpha-V5 epitope-AviTag-His Tag (canine)
- T1 construct: monomeric form isolated by size exclusion; also called canine IL-4RA-V5-Avi-His; canine IL-4RA
- T1 chain: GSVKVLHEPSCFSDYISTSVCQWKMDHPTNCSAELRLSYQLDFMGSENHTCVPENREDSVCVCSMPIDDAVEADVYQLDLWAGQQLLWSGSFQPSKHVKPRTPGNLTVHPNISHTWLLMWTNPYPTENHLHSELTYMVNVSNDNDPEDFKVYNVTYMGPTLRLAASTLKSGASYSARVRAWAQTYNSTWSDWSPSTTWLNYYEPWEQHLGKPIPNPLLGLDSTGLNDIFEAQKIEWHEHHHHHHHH
- experimental.details: SPR, Fab-SASA captured on BSA;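 note: biacore T200 SPR, Fab-SASA variants from E. coli conditioned medium captured on BSA-coated CM5 chip, canine IL-4RA injected 120 s then 420 s dissociation, 1:1 model fit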
property.label: koff (s⁻¹)
Return type: number; implicit unit s⁻¹.

TB640_005 Fab-SASA VL-Q95N (Fab, V domains shown, not shown: SASA tag then His-tag) VH: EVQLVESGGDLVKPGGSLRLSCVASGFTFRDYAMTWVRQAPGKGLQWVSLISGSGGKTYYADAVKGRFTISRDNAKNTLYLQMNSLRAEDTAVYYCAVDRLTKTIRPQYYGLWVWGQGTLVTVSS VL: DIVMTQTPLSLSVSPGETASISCRSSQSLLYSIGYNYLDWYLQKPGQSPQGLIYLGSKRASGVPDRFSGSGSGTDFTLRISRVEANDTGVYYCMNGLQSPLTFGQGTKLEIKR = 0.00048

Data request: Respond only with koff recorded for TB640_005 Fab-SASA VL-I33P (Fab, V domains shown, not shown: SASA tag then His-tag) VH: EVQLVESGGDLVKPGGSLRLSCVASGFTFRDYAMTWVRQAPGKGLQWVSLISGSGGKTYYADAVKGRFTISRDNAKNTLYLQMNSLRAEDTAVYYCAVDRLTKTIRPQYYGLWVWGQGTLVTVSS VL: DIVMTQTPLSLSVSPGETASISCRSSQSLLYSPGYNYLDWYLQKPGQSPQGLIYLGSKRASGVPDRFSGSGSGTDFTLRISRVEANDTGVYYCMQGLQSPLTFGQGTKLEIKR
Data returned: 0.00137

# credit: patent US20250188176A1
